Values compiled from patent US20260035432A1.

target.under.test: Extracellular domain (ECD) of ROR1 fused to human Fc region (UniProt Q01973)
Sequence (Q01973 30-406 limits assumed): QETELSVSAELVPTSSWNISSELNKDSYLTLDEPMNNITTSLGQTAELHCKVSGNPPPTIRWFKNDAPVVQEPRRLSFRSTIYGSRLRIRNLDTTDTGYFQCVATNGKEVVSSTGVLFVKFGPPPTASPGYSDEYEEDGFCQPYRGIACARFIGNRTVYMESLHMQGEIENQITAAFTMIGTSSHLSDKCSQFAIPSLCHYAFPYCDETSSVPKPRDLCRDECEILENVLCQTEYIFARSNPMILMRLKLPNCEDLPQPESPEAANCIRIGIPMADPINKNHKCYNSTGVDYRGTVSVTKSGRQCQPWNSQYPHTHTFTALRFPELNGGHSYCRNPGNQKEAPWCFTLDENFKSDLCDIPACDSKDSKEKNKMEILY
test.protocol: ROR1-Fc affinity of the construct's binding domain; method not given
quantity.measured: pKd
# pKd = -log10(concentration in molar units)

Hum ROR1_05VH_(G4S)3x_VL_16 (antibody, mouse IgG1, V domains shown, The name reads as an scFv with a (G4S)3 linker; The method text says variable regions were fused to mouse constant regions (chimeric mouse IgG1); VH/VL are tied by the numbers in the name) VH: EVQLVESGGGLVQPGGSLRLSCAASGFTFSSYAMSWVRQAPGKGLEWVSSISRGGTTYYPDSVKGRFTISRDNSKNTLYLQMNSLRAEDTAVYYCGRYDYDGYYAMDYWGQGTLVTVSS VL: DIQMTQSPSSLSASVGDRVTITCKASPDINSYLNWYQQKPGKAPKVLIYRANRLVDGVPSRFSGSGSGTDYTLTISSLQPEDFATYYCLQYDEFPYTFGQGTKVEIK
9.56

Turning now to a further binder:
What pKd value was documented for this binder, Hum_design_14_variant4 (antibody, V domains shown, Variable regions fused to mouse constant regions (chimeric mouse IgG1 mAb) for SPR; also called hROR1 VH_14-4 / hROR1 VL_14-4) VH: EVQLVESGGGLVQPGGSLRLSCAASGFTFSSYAMSWVRQAPGKGLEWVASISRGGTTYYPDSVKGRFTISRDNVRNILYLQMSSLRSEDTAMYYCGRYDYDGYYAMDYWGQGTLVTVSS VL: DIQMTQSPSSLSASVGDRVTITCKASPDINSYLNWYQQKPGKAPKLLIYRANRLVDGVPSRFSGSGSGTDYTLTISSLQPEDFATYYCLQYDEFPYTFGAGTKVEIK ? 9.55
